Reported pIC50 values are given for each entry in this list.
- ASSAY_TARGET: T1, integrin αvβ3 (vitronectin receptor), purified and immobilized (UniProt P06756 31-1048; P05106 27-788)
- T1 construct: Purified integrin coated at 50 ng per well; also called αvβ3 receptor
- T1 sequence (P06756 31-1048, form in doubt, chain 1 of 2): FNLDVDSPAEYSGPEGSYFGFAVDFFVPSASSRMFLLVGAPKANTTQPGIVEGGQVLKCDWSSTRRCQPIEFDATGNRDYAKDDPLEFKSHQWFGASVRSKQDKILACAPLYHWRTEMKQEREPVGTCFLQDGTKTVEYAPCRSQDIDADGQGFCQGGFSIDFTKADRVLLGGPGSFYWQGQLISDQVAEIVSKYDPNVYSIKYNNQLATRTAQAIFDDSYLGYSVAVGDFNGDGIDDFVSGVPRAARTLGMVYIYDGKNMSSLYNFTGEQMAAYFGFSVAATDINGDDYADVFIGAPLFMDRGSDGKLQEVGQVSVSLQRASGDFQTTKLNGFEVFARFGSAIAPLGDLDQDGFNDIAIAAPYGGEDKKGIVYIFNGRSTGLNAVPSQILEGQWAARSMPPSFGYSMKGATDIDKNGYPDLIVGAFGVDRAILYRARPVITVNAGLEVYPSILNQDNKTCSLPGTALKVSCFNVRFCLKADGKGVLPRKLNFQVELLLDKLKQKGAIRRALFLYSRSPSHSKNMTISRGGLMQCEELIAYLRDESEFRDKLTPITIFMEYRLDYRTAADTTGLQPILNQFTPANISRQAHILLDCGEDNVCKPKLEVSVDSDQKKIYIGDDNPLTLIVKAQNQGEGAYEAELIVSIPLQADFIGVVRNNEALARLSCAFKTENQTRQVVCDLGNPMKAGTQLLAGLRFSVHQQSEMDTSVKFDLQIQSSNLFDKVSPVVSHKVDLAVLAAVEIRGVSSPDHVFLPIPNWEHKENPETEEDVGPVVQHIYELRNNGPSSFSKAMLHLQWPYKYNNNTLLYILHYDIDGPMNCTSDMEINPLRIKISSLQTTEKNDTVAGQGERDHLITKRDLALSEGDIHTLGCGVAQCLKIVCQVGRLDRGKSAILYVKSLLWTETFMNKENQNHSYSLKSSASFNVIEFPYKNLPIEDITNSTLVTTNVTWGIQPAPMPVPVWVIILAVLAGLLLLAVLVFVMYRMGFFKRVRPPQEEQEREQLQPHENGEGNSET
- T1 sequence (P05106 27-788, form in doubt, chain 2 of 2): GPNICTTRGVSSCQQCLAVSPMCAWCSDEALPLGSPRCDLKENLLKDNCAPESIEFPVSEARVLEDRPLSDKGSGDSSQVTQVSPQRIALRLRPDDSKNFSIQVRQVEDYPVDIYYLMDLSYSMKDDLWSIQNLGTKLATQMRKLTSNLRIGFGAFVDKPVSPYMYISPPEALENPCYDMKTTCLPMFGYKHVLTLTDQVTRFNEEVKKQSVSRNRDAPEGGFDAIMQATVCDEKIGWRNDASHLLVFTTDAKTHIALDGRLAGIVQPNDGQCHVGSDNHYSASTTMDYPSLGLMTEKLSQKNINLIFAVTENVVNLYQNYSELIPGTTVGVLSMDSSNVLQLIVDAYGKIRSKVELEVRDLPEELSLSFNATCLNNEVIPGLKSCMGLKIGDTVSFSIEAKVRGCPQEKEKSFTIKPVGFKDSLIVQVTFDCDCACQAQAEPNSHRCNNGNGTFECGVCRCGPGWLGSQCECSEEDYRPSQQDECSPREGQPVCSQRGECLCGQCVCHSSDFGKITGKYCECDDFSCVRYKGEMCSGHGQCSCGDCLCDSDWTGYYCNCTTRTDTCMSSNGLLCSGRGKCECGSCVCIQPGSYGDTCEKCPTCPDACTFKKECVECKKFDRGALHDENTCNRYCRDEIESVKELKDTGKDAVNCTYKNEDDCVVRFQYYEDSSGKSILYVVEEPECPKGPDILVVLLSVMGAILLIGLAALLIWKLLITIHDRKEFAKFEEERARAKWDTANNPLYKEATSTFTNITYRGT
- ASSAY_COMMENT: competition, fibrinogen (FG) binding to immobilized αvβ3; individual assay
pIC50: −log10 of the molar value.

| BINDER | pIC50 |
| --- | --- |
| TDVNGDGRHDL (Linear synthetic peptide; also called αIIb-derived amino acid residues 296-306) [peptide 62502, TDVNGDGRHDL] | < 4.00 |
| YTAECKPQVTRGDVF (Linear synthetic peptide; also called VN-derived amino acid residues 35-49) [peptide 62880, YTAECKPQVTRGDVF] | > 7.00 |
| GVVRNNEALARLS (Linear synthetic peptide; also called αv-derived amino acid residues 655-667) [peptide 62503, GVVRNNEALARLS] | < 4.00 |
| TRQVVCDLGNPM (Linear synthetic peptide; also called αv-derived amino acid residues 676-687) [peptide 62411, TRQVVCDLGNPM] | < 4.00 |

Values compiled from patent US20030176334A1.
